molecular target: pre-pro-human insulin

Protein	Activity PPI cleavage
trypsin variant SEQ ID NO: 36 (protein) IVGGYTCAANSIPYQVSLNSGSHRCGGSLINSQWVVSAAHCYKSRIQVRLGEHNIDVLEGNEQFINAAKIITHPNFNGNTLDNDIMLIKLSSPATLNSRVATVSLPRSCAAAGTECLISGWGNTKSSGSSMPSLLQCLKAPVLSDSSCKSSYPGQITGNMICVGFLEGGKDACQGDSGGPVVCNGQLQGIVSSGYGCAQKNKPGVYTKVCNYVNWIQQTIAAN	yes
trypsin variant SEQ ID NO: 54 (protein) IVGGYTCAANSIPYQVSLNSGSHRCGGSLINSQWVVSAAHCYKSRIQVRLGEHNIAVLEGNEQFINAAKIITHPNFNGNTLDNDIMLIKLSSPATLNSRVATVSLPRSCAAAGTECLISGWGNTKSSGSSYPSLLQCLKAPVLSDSSCKSSYPGQITGNMICVGFLEGGKDACQGDSGGPVVCNGQLQGIVSSGYGCAQKNKPGVYTKVCNYVNWIQQTIAAN	yes
trypsin variant SEQ ID NO: 116 (protein) IVGGYTCAANSIPYQVSLNSGSHRCGGSLINSQWVVSAAHCYKPRIQVRLGEHNIHVLEGNEQFINAAKIITHPNFNGNTLDNDIMLIKLSSPATLNSNVATVSLPTSCAAAGTECLISGWGNTSSSGSSMPSLLQCLKAPVLSDSSCKSSYPGQITGNMICVGFLEGGADACQGDSGGPVVCNGQLQGIVSSGYGCAQKNKPGVYTKVCNYVNWIQQTIAAN	yes
